meta.source: patent US20090123479A1

Target: T1, recombinant human IL-23 (human, UniProt Q9NPF7 20-189; P29460 23-328)
T1 construct: also called hIL-23
T1 sequence 1: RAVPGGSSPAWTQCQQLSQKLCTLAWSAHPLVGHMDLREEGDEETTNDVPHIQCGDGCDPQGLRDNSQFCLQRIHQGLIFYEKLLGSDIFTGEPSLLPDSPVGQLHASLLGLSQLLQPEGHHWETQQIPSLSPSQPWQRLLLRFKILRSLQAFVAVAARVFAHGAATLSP
T1 sequence 2: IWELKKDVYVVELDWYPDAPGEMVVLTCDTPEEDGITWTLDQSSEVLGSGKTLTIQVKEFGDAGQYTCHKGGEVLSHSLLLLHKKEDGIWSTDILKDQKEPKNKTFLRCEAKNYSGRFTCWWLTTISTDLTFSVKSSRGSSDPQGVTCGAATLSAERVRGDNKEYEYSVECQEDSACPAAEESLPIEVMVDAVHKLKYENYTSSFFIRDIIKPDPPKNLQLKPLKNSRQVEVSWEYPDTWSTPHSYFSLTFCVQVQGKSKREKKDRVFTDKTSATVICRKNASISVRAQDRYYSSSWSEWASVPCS
Test: SPR (Biacore T100), tissue culture supernatant antibody captured on anti-human IgG, IL-23 analyte
Result Type: koff (s⁻¹)
Hi! Could you send only the number? It should be in s⁻¹, unit omitted.

binder="A3M6 (antibody, human IgG1, kappa, V domains shown, Full length chains) VH: QVQLVQSGAEVKKPGSSVKVSCKASGYTFTSYGITWVRQAPGQGLEWMGENYPRSGNTYYNEKFKGRVTITADKSTSTAYMELSSLRSEDTAVYYCARSEFISTVVAPYYYALDYWGQGTLVTVSS VL: DIVMTQSPDSLAVSLGERATINCKASKKVTIFGSISALHWYQQKPGQPPKLIYQGAKLESGVPDRFSGSGSGTDFTLTISSLQAEDVAVYYCLQNKEVPYTFGGGTKVEIKR" unit_of_measurement=s⁻¹ val=0.0011
binder="A10.5M4 (antibody, V domains shown) VH: QVQLVQSGAEVKKPGSSVKVSCKASGYTFASYGITWVRQAPGQGLEWMGENYPRSGNTYYNEKFKGRVTITADKSTSTAYMELSSLRSEDTAVYYCARSEFISTVVAPYYYALDYWGQGTLVTVSS VL: DIVMTQSPDSLAVSLGERATINCKASKKVTIFGSTSALHWYQQKPGQPPKLIYNGAKPESGVPDRFSGSGSGTDFTLTISSLQAEDVAVYYCLQNKEVPYTFGGGTKVEIK" unit_of_measurement=s⁻¹ val=8.64e-05

Next binder, koff to be filled in.
I would be grateful if you could share the reported koff for A10.5M3 (antibody, V domains shown) VH: QVQLVQSGAEVKKPGSSVKVSCKASGYTFASYGITWVRQAPGQGLEWMGENYPRSGNTYYNEKFKGRVTITADKSTSTAYMELSSLRSEDTAVYYCARSEFISTVVAPYYYALDYWGQGTLVTVSS VL: DIVMTQSPDSLAVSLGERATINCKASKKVTIFGSTSALHWYQQKPGQPPKLIYNGAKLESGVPDRFSGSGSGTDFTLTISSLQAEDVAVYYCLQNKEVPYTFGGGTKVEIK .
0.000115
